- target_desc: glucocerebrosidase (Gcase) (Homo sapiens)
- Construct: micellar solution containing 10 nM GCase and 100 nM saposin C
- Sequence (P04062 40-536): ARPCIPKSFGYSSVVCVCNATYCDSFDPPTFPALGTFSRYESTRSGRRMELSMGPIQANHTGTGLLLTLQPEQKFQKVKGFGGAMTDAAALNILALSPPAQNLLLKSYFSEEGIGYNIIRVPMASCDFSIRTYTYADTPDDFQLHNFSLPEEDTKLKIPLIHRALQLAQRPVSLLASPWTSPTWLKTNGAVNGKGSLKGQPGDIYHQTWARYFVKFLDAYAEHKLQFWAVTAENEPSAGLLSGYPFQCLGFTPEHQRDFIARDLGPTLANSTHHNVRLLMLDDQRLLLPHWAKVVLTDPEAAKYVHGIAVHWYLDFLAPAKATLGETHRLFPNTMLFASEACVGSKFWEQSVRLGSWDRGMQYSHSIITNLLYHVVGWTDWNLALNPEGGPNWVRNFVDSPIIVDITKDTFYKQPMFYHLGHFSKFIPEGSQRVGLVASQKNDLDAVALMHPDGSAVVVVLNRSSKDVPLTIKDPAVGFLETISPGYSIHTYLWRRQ
- run_description: Glucocerebrosidase (Gcase) activation assay, 4-methylumbelliferyl-beta-D-glucopyranoside substrate, fluorescence readout
- Assay type: biochemical
- condition_set: test compound at 0.1 μM; read-out: Percent Gcase Activation, 0.1 μM Test Compound
reported_endpoint: activation at 0.1 µM

As a guide, the following entries are already answered.
CCOC1(C)CCC(NC(=O)c2ccn3c(C)cc(C)nc23)CC1 (stereo not drawn)
< 10%
CCCCCO[C@H]1CC[C@H](NC(=O)c2ccn3c(C(F)F)cc(C(F)F)nc23)CC1
> 20%
Cc1cc(C)n2ccc(C(=O)NC3CCCCC34CCOCC4)c2n1 (stereo not drawn)
10 to 20%
C#CCCCO[C@H]1CC[C@H](NC(=O)c2ccn3c(C)cc(C)nc23)CC1
10 to 20%
Cc1cc(C)n2ccc(C(=O)NC3CCN(CC(F)(F)F)C3)c2n1 (stereo not drawn)
< 10%

Enquiry: GET /values?readout=activation at 0.1 µM&item= Cc1cc(C(F)(F)F)n2ccc(C(=O)Nc3ccc(-c4cocn4)cc3)c2n1
Return: < 10%

Enquiry: GET /values?readout=activation at 0.1 µM&item= COCc1cc(C)nc2c(C(=O)NC(C)(C)c3ccc(-c4cocn4)cc3)ccn12
Return: > 20%

Enquiry: GET /values?readout=activation at 0.1 µM&item= CCCCO[C@H]1CC[C@H](NC(=O)c2ccn3c(C)cc(Cl)nc23)CC1
Return: > 20%

Enquiry: GET /values?readout=activation at 0.1 µM&item= CCCCO[C@H]1CC[C@H](NC(=O)c2ccn3c(COC)cc(C4CC4)nc23)CC1
Return: > 20%
